Tested on: Pro. vulgaris GN76**
Experiment: Antibacterial activity (MIC), agar dilution
Assay type: cell-based
Settings: Proteus vulgaris, 20 h; Pro. vulgaris GN76, cephalospolinase-producing; 10^6 cells per ml; read-out: MIC
property: log10(MIC) (log10 of the value in µg/mL)
// units: µg/mL (pre-log); metric: MIC; scale: log10

Recorded results for 10 compounds are shown here.
O=C(O)c1cn(-c2ccc(O)cc2)c(-c2ccc(-c3ccc(O)cc3)s2)cc1=O
-0.11
CC(=O)Oc1ccc(-n2cc(C(=O)O)c(=O)cc2-c2ccc(-c3cccs3)cc2)cc1
-0.41
Cc1cc(F)ccc1-n1cc(C(=O)O)c(=O)cc1C1CC=CCC1 (centres unmarked)
0.80
O=C(O)c1cn(-c2ccc(O)cc2)c(-c2ccc(-c3ccccn3)s2)cc1=O
-0.11
Cc1cc(O)ccc1-n1cc(C(=O)O)c(=O)cc1-c1ccccc1
-0.70
Cc1cc(O)ccc1-n1cc(C(=O)O)c(=O)cc1-c1ccc2[nH]ccc2c1
-0.11
CC1Cc2cc(-c3cc(=O)c(C(=O)O)cn3-c3ccc(O)cc3)ccc2O1 (centres unmarked)
0.50
O=C(O)c1cn(-c2ccc(O)cc2)c(-c2ccc(-c3ccccc3)cc2)cc1=O
-0.11
CN(C)c1ccc(-c2cc(=O)c(C(=O)O)cn2-c2cccc(O)c2)cc1
-0.11
O=C(O)c1cn(-c2ccc(O)cc2)c(-c2cc3ccccc3s2)cc1=O
-0.70

State recorded log10(MIC) for all listed compounds.
1. Cc1cc(O)ccc1-n1cc(C(=O)O)c(=O)cc1C1CCCCC1 [drawing 12]
2. Cc1cc(O)ccc1-n1cc(C(=O)O)c(=O)cc1-c1ccc2c(c1)NCCN2C
3. Cc1cc(O)ccc1-n1cc(C(=O)O)c(=O)cc1C1CC2C=CC1C2 (centres unmarked)
4. Cc1cc(O)ccc1-n1cc(C(=O)O)c(=O)cc1C1CCCC1
5. Cc1nc(-c2ccc(-c3cc(=O)c(C(=O)O)cn3-c3ccc(F)cc3)cc2)co1

[0.50, 0.19, 0.80, -0.11, 0.50]

State recorded log10(MIC) for all listed compounds.
1. COc1ccc(-c2ccc(-c3cc(=O)c(C(=O)O)cn3-c3ccc(O)cc3)s2)cc1
2. Cc1cc(O)ccc1-n1cc(C(=O)O)c(=O)cc1-c1ccc(N(C)C)cc1
3. O=C(O)c1cn(-c2ccc(O)cc2)c(-c2ccc(-c3ccc(Cl)s3)cc2)cc1=O
4. Cn1ccc2cc(-c3cc(=O)c(C(=O)O)cn3-c3ccc(F)cc3)ccc21
5. CC(=O)Oc1ccc(-n2cc(C(=O)OCCN(C)C)c(=O)cc2-c2ccc(N(C)C)cc2)cc1 [drawing 37]

-0.41
-0.41
-0.41
-0.11
0.19

====

Tested on: Ps. aeruginosa IFO3445
Assay: Antibacterial activity (MIC), agar dilution
Format: cell-based
Conditions: Pseudomonas aeruginosa; Ps. aeruginosa IFO3445; 10^6 cells per ml; 37° C., 20 hours; read-out: MIC
property: MIC (µg/mL)
Give bare numbers, in µg/mL.

State recorded MIC for all listed compounds.
1. O=C(O)c1cn(-c2ccc(O)cc2F)c(C2CC=CCC2)cc1=O (stereo not drawn)
2. Cc1nc(-c2ccc(-c3cc(=O)c(C(=O)O)cn3-c3ccc(O)cc3C)cc2)cs1
3. CC(=O)Oc1ccc(-n2cc(C(=O)OCCN(C)C)c(=O)cc2-c2ccc(N(C)C)cc2)cc1 [drawing 37]

1. 12.5
2. 3.13
3. 12.5

State recorded MIC for all listed compounds.
1. O=C(O)c1cn(-c2ccc(F)cc2)c(-c2ccc(N=Cc3ccc([N+](=O)[O-])o3)cc2)cc1=O
2. CN(C)c1ccc(-c2cc(=O)c(C(=O)O)cn2-c2ccc(F)cc2)cc1
3. COCOC(=O)c1cn(-c2ccc(O)cc2)c(-c2ccc(N(C)C)cc2)cc1=O
4. Cc1nc2cc(-c3cc(=O)c(C(=O)O)cn3-c3ccc(O)cc3)ccc2s1
5. COc1ccc(-c2cc(=O)c(C(=O)O)cn2-c2ccc(O)cc2C)cc1
6. CN1CCOc2cc(-c3cc(=O)c(C(=O)O)cn3-c3ccc(O)cc3)ccc21

[25, 25, 6.25, 12.5, 3.13, 12.5]

====

Tested on: E. coli TK-111
Assay: Antibacterial activity (MIC), agar dilution
Assay type: cell-based
Conditions: Escherichia coli, TK111, 20 h, E. coli TK-111; 10^6 cells per ml; 37° C., 20 hours; read-out: MIC
property: MIC (µg/mL)
One number for each entry, in µg/mL.

Recorded results for 6 molecules are shown here.
O=C(O)c1cn(-c2ccc(F)cc2)c(-c2ccc(Cl)cc2)cc1=O
1.56
Cc1cc(O)ccc1-n1cc(C(=O)O)c(=O)cc1-c1ccc2c(ccn2C)c1
0.05
CC(=O)Oc1ccc(-n2cc(C(=O)O)c(=O)cc2-c2cc3ccccc3o2)cc1
0.78
O=C(O)c1cn(-c2ccc(F)cc2)c(/C=C/c2ccccc2)cc1=O
1.56
O=C(O)c1cn(-c2ccc(F)cc2)c(-c2sccc2-c2ccc([N+](=O)[O-])cc2)cc1=O
0.2
O=C(O)c1cn(-c2ccc(F)cc2)c(C=Cc2cccnc2)cc1=O [drawing 205]
0.78

Now turn to the next molecule.
Which MIC value is on record for CN(C)c1ccc(-c2cc(=O)c(C(=O)O)cn2-c2ccc(O)cc2)cc1 [drawing 206] ?
0.05

====

System: Ps. aeruginosa GN918**
Assay: Antibacterial activity (MIC), agar dilution
Assay type: cell-based
Details: Pseudomonas aeruginosa, GN918, 20 h, Ps. aeruginosa GN918, cephalospolinase-producing; 10^6 cells per ml
For each entry below, report its MIC value.
Numbers only, in µg/mL.

O=C(O)c1cn(-c2ccc(O)cc2F)c(-c2ccc(N3CCOCC3)cc2)cc1=O
12.5
CC(=O)Oc1ccc(-n2cc(C(=O)O)c(=O)cc2-c2ccc(N(C)C)cc2)c(C)c1
1.56
Cc1ccc(-c2ccc(-c3cc(=O)c(C(=O)O)cn3-c3ccc(O)cc3)cc2)s1
1.56
CC1Cc2cc(-c3cc(=O)c(C(=O)O)cn3-c3ccc(O)cc3)ccc2O1 (centres unmarked)
12.5

Now turn to the next molecule.
Which MIC value is on record for CN(C)c1ccc(-c2cc(=O)c(C(=O)O)cn2-c2ccc(F)cc2)cc1 ?
12.5

====

Tested on: Ps. aeruginosa S-68
Test: Antibacterial activity (MIC), agar dilution
Assay type: cell-based
Settings: Pseudomonas aeruginosa, S68, 20 h
For each entry below, report its MIC value.
Give bare numbers, in µg/mL.

Cc1cc(O)ccc1-n1cc(C(=O)O)c(=O)cc1/C=C/c1ccccc1
3.13
COc1ccc(-c2ccc(-c3cc(=O)c(C(=O)O)cn3-c3ccc(O)cc3)s2)cc1
1.56
CC(=O)Oc1ccc(-n2cc(C(=O)O)c(=O)cc2-c2cc3ccccc3o2)cc1
6.25
Cc1nc(-c2ccc(-c3cc(=O)c(C(=O)O)cn3-c3ccc(O)cc3C)cc2)co1
3.13
O=C(O)c1cn(-c2ccc(O)cc2F)c(-c2cc3ccccc3s2)cc1=O
1.56

State recorded MIC for all listed compounds.
1. O=C(O)c1cn(-c2ccc(O)cc2)c(C2CC=CCC2)cc1=O (stereo not shown)
2. O=C(O)c1cn(-c2ccc(O)cc2)c(-c2ccc(-c3ccccn3)s2)cc1=O
3. O=C(O)c1cn(-c2ccc(O)cc2F)c(-c2ccc(N3CCCC3)cc2)cc1=O
4. CNc1ccc(-c2cc(=O)c(C(=O)O)cn2-c2ccc(F)cc2)cc1C
5. CN1CCCc2cc(-c3cc(=O)c(C(=O)O)cn3-c3ccc(O)cc3)ccc21

[12.5, 3.13, 3.13, 12.5, 6.25]

====

For each entry below, report its MIC value.
Tested on: Kl. pneumoniae Y-4*
Assay: Antibacterial activity (MIC), agar dilution
Type: cell-based
Conditions: Klebsiella pneumoniae, 20 h, Kl. pneumoniae Y-4, penicillinase-producing; 10^6 cells per ml; read-out: MIC
Text: The amount of bacteria inoculated was 10^4 cells per plate (10^6 cells per ml). * Penicillinase-producing bacteria
Numbers only, in µg/mL.

CC(=O)Oc1ccc(-n2cc(C(=O)OCCN(C)C)c(=O)cc2-c2ccc(N(C)C)cc2)cc1 [drawing 37]
6.25
Cn1ccc2cc(-c3cc(=O)c(C(=O)O)cn3-c3ccc(O)cc3F)ccc21
0.78
COc1ccc(-c2ccc(-c3cc(=O)c(C(=O)O)cn3-c3ccc(O)cc3)cc2)s1
1.56
CNc1ccc(-c2cc(=O)c(C(=O)O)cn2-c2ccc(O)cc2)cc1C
1.56

State recorded MIC for all listed compounds.
1. O=C(O)c1cn(-c2ccc(O)cc2)c(-c2ccc(-n3cccc3)cc2)cc1=O
2. Cc1nc(-c2ccc(-c3cc(=O)c(C(=O)O)cn3-c3ccc(F)cc3)cc2)co1
3. O=C(O)c1cn(-c2ccc(O)cc2)c(-c2ccc(-c3ccccc3)cc2)cc1=O
4. O=C(O)c1cn(-c2ccc(O)cc2)c(C2CC=CCC2)cc1=O (centres unmarked)

[1.56, 12.5, 12.5, 12.5]

State recorded MIC for all listed compounds.
1. O=C(O)c1cn(-c2ccc(O)cc2)c(-c2ccc3occc3c2)cc1=O
2. O=C(O)c1cn(-c2ccc(O)cc2)c(-c2ccc(-c3ccccn3)s2)cc1=O
3. O=C(O)c1cn(-c2ccc(O)cc2)c(-c2ccc(N3CCCC3)cc2)cc1=O
4. Cn1ccc2cc(-c3cc(=O)c(C(=O)O)cn3-c3ccc(O)cc3)ccc21
5. Cc1cc(O)ccc1-n1cc(C(=O)O)c(=O)cc1CCc1ccccc1
6. Cc1cc(O)ccc1-n1cc(C(=O)O)c(=O)cc1C1CC=CCC1 (centres unmarked)
7. COc1ccc(-c2cc(=O)c(C(=O)O)cn2-c2ccc(F)cc2)cc1

1. 3.13
2. 3.13
3. 3.13
4. 0.78
5. 12.5
6. 1.56
7. 12.5

State recorded MIC for all listed compounds.
1. COc1ccc(-c2cc(=O)c(C(=O)O)cn2-c2ccc(O)cc2C)cc1F
2. COc1ccc(-c2ccc(-c3cc(=O)c(C(=O)O)cn3-c3ccc(O)cc3)s2)cc1
3. CN(C)c1ccc(-c2cc(=O)c(C(=O)O)cn2-c2ccc(F)cc2F)cc1
4. O=C(O)c1cn(-c2ccc(O)cc2F)c(-c2ccc(N3CCOCC3)cc2)cc1=O
5. CC1Cc2cc(-c3cc(=O)c(C(=O)O)cn3-c3ccc(O)cc3)ccc2O1 (centres unmarked)

[1.56, 3.13, 6.25, 25, 12.5]
